- System: RIVA
- EXPERIMENT_SUMMARY: growth inhibition by drug alone (1 - RLU/untreated control) (fraction); higher = stronger inhibition
- STUDY_CONDITIONS: 100 nM; time (day): 6; 177Lu-lilotomab satetraxetan 0 ug/ml
READOUT_NAME: growth inhibition by drug alone

>  <COMPOUND>
O=c1cc(N2CCOCC2)oc2c(-c3cccc4c3sc3ccccc34)cccc12

>  <RECORDED_NUMBER>
-0.43

$$$$
>  <COMPOUND>
Cn1cncc1[C@@](N)(c1ccc(Cl)cc1)c1ccc2c(c1)c(-c1cccc(Cl)c1)cc(=O)n2C [Tipifarnib (Zarnestra)]

>  <RECORDED_NUMBER>
-0.517

$$$$
>  <COMPOUND>
CN1CCC(CNc2ccc3ncc(-c4cccc(OC(F)(F)F)c4)n3n2)CC1 [SGI-1776 free base]

>  <RECORDED_NUMBER>
-0.438

$$$$
